targetOrTestSystem: T1, αvβ8 integrin (purified, coated on microtiter plates) (UniProt P06756 31-992; P26012 43-684)
T1 construct: The Reagents section names no source for αvβ8; also called avs8
T1 sequence (P06756 31-992, chain 1 of 2): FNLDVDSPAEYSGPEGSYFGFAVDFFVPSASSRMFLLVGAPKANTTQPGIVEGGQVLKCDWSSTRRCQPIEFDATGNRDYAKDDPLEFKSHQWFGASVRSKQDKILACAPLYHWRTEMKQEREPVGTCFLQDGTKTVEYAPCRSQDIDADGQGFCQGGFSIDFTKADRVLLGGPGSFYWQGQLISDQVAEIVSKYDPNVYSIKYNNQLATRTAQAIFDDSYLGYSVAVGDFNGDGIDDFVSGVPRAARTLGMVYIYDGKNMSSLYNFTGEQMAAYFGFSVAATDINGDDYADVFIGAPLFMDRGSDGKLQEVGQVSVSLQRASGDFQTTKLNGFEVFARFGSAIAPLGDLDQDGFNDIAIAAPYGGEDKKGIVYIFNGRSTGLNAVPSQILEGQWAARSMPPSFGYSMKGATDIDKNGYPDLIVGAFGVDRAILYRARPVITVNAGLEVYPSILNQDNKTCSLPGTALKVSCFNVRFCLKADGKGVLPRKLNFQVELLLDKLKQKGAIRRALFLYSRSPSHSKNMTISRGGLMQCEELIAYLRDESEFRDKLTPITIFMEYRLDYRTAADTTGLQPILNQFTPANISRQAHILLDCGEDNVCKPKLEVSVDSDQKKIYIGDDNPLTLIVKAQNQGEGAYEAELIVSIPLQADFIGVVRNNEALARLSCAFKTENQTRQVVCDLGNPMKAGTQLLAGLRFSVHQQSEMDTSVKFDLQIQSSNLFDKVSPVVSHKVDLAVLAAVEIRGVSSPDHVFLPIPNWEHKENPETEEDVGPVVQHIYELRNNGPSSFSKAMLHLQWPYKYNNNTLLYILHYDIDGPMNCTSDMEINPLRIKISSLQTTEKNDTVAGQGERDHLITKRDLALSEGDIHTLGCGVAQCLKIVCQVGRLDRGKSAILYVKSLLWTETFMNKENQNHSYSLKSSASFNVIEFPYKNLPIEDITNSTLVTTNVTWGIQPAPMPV
T1 sequence (P26012 43-684, chain 2 of 2): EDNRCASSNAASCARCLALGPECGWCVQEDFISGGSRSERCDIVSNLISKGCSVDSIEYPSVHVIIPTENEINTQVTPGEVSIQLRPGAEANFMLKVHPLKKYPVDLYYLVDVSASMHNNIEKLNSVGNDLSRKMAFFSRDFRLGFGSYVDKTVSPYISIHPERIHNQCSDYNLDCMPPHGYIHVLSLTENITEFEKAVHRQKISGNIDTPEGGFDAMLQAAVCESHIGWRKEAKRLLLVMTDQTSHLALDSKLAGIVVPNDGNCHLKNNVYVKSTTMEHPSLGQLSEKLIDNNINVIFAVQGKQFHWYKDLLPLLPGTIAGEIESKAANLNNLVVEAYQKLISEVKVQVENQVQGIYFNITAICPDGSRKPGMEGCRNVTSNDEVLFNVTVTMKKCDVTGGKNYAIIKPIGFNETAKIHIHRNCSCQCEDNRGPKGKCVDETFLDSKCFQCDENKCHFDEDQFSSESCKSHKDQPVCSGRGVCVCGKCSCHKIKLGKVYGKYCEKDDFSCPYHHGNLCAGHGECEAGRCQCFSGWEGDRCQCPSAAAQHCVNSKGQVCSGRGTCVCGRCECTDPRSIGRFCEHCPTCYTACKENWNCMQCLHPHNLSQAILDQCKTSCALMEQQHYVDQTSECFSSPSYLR
assay: direct binding to integrin-coated microtiter plates, one site specific binding fit
*1 amine or outer side, *2 acyl side, *3 side chain or, on linkers, in order; H or OH if unused. Where no end group is shown, it is not given here. [ ]: non-standard residue; d: D form. The star is where a group is joined. Biotin = O=C1N[C@H]2[C@H](CS[C@H]2CCCCC(=O)*)N1; βAsp = O=C(O)[C@H](CC(=O)[*:2])N[*:1]
valueKind: pKd
API: returns pKd as number; meaning -log10 of concentration in mol/L.

Request: Consider the binder shown here: Ac-C[βAsp]GRCGVRSSSRTPSDK(Biotin)Y (also: in complex with streptavidin-peroxidase conjugate) What is its recorded pKd?
Response: 8.80

All values here come from patent US20220402980A1.
